Experiment: In vivo Assay (II): half life of the prodrug after oral administration in rat
Conditions: whole blood, rat (n=2), orally administered at a dose equivalent to 2 mg/kg of the parent ethanol compound, LC/MS, read-out: half life (T1/2)
PROPERTY NAME: half-life

Input line: Endpoint output: half-life of "CC(C)(C)S(=O)(=O)c1cc2c(Nc3ccc4scnc4c3)ncnc2cc1OCCOP(=O)(O)O" . Value?
Output line: 15 min

* * *

Test: In vivo Assay (II): half life of the prodrug after oral administration in minipig
Design: species or system male Göttingen minipigs
Details: male, Göttingen, whole blood, minipig (n=3), orally administered at a dose equivalent to 2 mg/kg of the parent ethanol compound, LC/MS, read-out: half life (T1/2)
PROPERTY NAME: half-life (min)
Give bare numbers, in min.

Input line: Endpoint output: half-life of "CC(C)(C)S(=O)(=O)c1cc2c(Nc3ccc4scnc4c3)ncnc2cc1OCCOP(=O)(O)O" . Value?
Output line: 26
